Measured absorbance ratio of individual entries
Target Desc: T1, biotinylated Fc-fused monkey CD137 (monkey, biotin on the AviTag)
T1 construct: also called cyCD137-Fc-BAP
T1 sequence (chain, as listed by the source limits assumed): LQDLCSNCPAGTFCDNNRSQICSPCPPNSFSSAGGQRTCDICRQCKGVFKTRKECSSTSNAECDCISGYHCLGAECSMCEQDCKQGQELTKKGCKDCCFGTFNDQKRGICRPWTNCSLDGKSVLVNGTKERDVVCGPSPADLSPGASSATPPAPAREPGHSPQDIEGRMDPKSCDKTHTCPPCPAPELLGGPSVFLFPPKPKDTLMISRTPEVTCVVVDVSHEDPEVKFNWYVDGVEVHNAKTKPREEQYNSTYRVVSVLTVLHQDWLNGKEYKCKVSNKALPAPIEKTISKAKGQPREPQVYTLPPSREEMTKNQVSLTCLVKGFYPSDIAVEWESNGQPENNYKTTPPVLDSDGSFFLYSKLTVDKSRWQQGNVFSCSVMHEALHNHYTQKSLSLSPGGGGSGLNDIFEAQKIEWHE
Test Name: ELISA, 1 mM ADP, 0.039 ug/mL
Design: reference not given here
Experimental Readout: absorbance ratio

[[record]]
binder = "dBBAT007-P253 (antibody, human IgG1, lambda, V domains shown) VH: EVQLVESGGDLVKPGGGLRLSCAASGFTFSGYTMNWVRQAPGKGLEWVSSISSRSNYAHYADSVKGRFTISRDNAKNSLYLQMNSLRAEDTAVYYCARFGLKNFMNWVFDYWGQGTLVTVSS VL: QSALTQPPSASGSPGQTVTISCTGTSSDVGFYNYVSWYQQHPGKAPKLMIYGTSKRPSGVPDRFSGSKSGNTASLTVSGLQAEDEADYFCSSYAYDAQLVFGGGTKLTVLG"
meas_value = 0.7

[[record]]
binder = "dBBAT122-P253 (antibody, human IgG1, lambda, V domains shown) VH: EVQLVESGGDLVKPGGGLRLSCAASGFTFSTYTMNWVRQAPGKGLEWVSSISSRSNYKFYADSVKGRFTISRDNAKNSLYLQMNSLRAEDTAVYYCARFGGKNNMNWVFDYWGQGTLVTVSS VL: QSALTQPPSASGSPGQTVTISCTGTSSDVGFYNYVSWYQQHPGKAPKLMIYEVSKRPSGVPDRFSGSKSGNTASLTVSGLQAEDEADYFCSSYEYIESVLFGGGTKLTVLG"
meas_value = 1

[[record]]
binder = "dBBAT015-P253 (antibody, human IgG1, lambda, V domains shown) VH: EVQLVESGGDLVKPGGGLRLSCAASGFTFSTYTMNWVRQAPGKGLEWVSSISSRSTYATYADSVKGRFTISRDNAKNSLYLQMNSLRAEDTAVYYCARYGLKNSLNWVFDYWGQGTLVTVSS VL: QSALTQPPSASGSPGQTVTISCTGTSTDVGFYNYVSWYQQHPGKAPKLMIYEVSKKPSGVPDRFSGSKSGNTASLTVSGLQAEDEADYFCSTYSYDESVAFGGGTKLTVLG"
meas_value = 1.5

